Values from patent EP4324461A1

Measured Increase in the number of yellow wells compared to the reference level of individual entries
Test system: S. typhimurium TA98
Measurement description: Ames microplate test, TA98;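 also: reference level is the mean solvent-control yellow wells plus SD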
Format: cell-based, Salmonella typhimurium
Conditions used: 2.0 mM, +S9
# print the numeric value only

Before answering, review these 3 worked examples.
CCC(O)CNC(=O)/C=C/c1ccc(Cl)cc1 (stereo not shown) [Compound A-67]	1.04
O=C(/C=C/c1ccccc1)NCCCCCCO [H-425/21]	0.63
O=C(/C=C/c1ccccc1)NCCCCCO [Compound A-133]	1.00

# ---- query compound ----
What the record says about O=C(/C=C/c1ccc(Cl)cc1)NCCCCCO [Compound A-111] : Increase in the number of yellow wells compared to the reference level is 1.50

====

Tested on: Chinese hamster ovary cell line (CHO-K1)
Measurement description: Genotoxicity in the micronucleus test in CHO-K1 cells
Type: cell-based
Conditions used: 150 µM
Entries annotated with measured DB (dicentric bridges in 1000 binucleate cells)
Hey, just send me the number, nothing else.

O=C(/C=C/c1ccccc1)NCCCCCCO [H-425/21]	2.5

Record CC(CO)NC(=O)/C=C/c1ccc(Cl)cc1 (stereo not drawn) [Compound A-102] . Reported DB (dicentric bridges in 1000 binucleate cells): 2.5

Looking up O=C(/C=C/c1ccccc1)NCCCCCO [Compound A-133] , I found its DB (dicentric bridges in 1000 binucleate cells) recorded as 3.7

// DB (dicentric bridges in 1000 binucleate cells) lookup, compound = Cc1ccc(/C=C/C(=O)NCCCCCO)cc1 [H-415/21] , result: 3.5

The compound listed as CCC(O)CNC(=O)/C=C/c1ccc(Cl)cc1 (stereo not drawn) [Compound A-67] shows DB (dicentric bridges in 1000 binucleate cells) equal to 2.3

According to the records, this compound O=C(/C=C/c1ccc(Cl)cc1)NCCCCCO [Compound A-111] displays DB (dicentric bridges in 1000 binucleate cells) of 4.0

====

Here the recorded Primary melanocytes LDH is given for each entry.
System: Primary melanocytes
Measurement description: Safety, LDH test in primary melanocytes
Assay type: cell-based
Conditions used: 250 µM; 48 hours; positive control Triton X-100

// known answers, use as guide
O=C(/C=C/c1ccccc1)NCCCCCO	19.45 percentage of positive control
O=C(/C=C/c1ccc(Cl)cc1)NCCCCCO	18.41 percentage of positive control
O=C(/C=C/c1ccc(Cl)cc1)NCCCO	18.10 percentage of positive control
Cc1ccc(/C=C/C(=O)NCCCCCO)cc1	14.94 percentage of positive control

// switching to the query compound
Given item O=C(/C=C/c1ccc(Cl)cc1)NCCO , the value recorded as its Primary melanocytes LDH is 15.01 percentage of positive control

====

Each record here notes measured RM0.
Measurement description: Lipophilicity coefficient RM0 by reversed phase thin layer chromatography
Format: physicochemical
Conditions used: RP-18 TLC, methanol / 100 mM phosphate buffer pH = 7.4
Protocol: Confirmation of the identity and purity of the obtained compounds consisted in the registration and interpretation of ^1H NMR and ^13C NMR spectra (the spectra were recorded using an ECZR 500 MHz (JEOL) series FT-NMR spectrophotometer), as well as the registration and interpretation of LC-MS spectra (the spectra were recorded using Acquita UPLC system (Waters) coupled with a Waters TQD mass spectrometer). […]
Returns: the value as a bare number; no unit string appended.

O=C(/C=C/c1ccc(Cl)cc1)NCCCCCO [Compound A-111]	2.79
O=C(/C=C/c1ccc(Cl)cc1)N1CCC(O)CC1 [Compound A-99]	2.27
O=C(/C=C/c1ccc(Cl)cc1Cl)NCCCCCO [H-297/20]	3.08
O=C(/C=C/c1ccccc1)NCCCCCCO [H-425/21]	2.40

The recorded RM0 for entry O=C(/C=C/c1ccc(Cl)cc1)NCCCCCCO [H-426/21] equals 3.02
